tested on: MCF7 breast; assay: NCI tumour cell line growth inhibition, 48 h
experimental.endpoint: TGI

Reference set, count: 5
{"compound": "COc1ccc(C2=NN(C(N)=S)C(c3ccc4c(c3)OCO4)C2)cc1 (stereo unspecified)", "test.value": "> 100 µM"}
{"compound": "O=C(O)c1ccccc1CN1CCCC(C(=O)O)C1 (stereo unspecified)", "test.value": "> 100 µM"}
{"compound": "Cc1cc(I)cc(CNCCN(C)C)c1O", "test.value": "> 100 µM"}
{"compound": "COC(=O)C(=O)C(C(=O)C(=O)Nc1ccc(Cl)c(Cl)c1)c1nc2ccc(C(=O)c3ccccc3)cc2[nH]c1=O (stereo unspecified)", "test.value": "> 100 µM"}
{"compound": "C=CCN1C(=O)CC2[C@@H]3CCc4cc(O)ccc4C3CC[C@]2(C)C1=O (stereo partly specified)", "test.value": "> 10 µM"}

Now for another entry.
Would you kindly share the measured TGI for C=CCOC(=O)Cn1cnc2c(N)ncnc21 ? > 100 µM

---

system: SNB-19 CNS; experiment: NCI tumour cell line growth inhibition, 48 h; in the data active = GI50 below about 0.43 µM; inactive = the rest
Respond using exactly one of the listed classes: class 1 (active), class 0 (inactive)

Worked examples, 5 molecules total:
{"query.smiles": "Sc1cccc2cccnc12", "group": "class 0"}
{"query.smiles": "O=C(N/N=C/c1ccc(Cl)cc1)c1ccc(NC(=O)c2ccccn2)cc1", "group": "class 0"}
{"query.smiles": "CN(C)CCNC(=O)c1cc2c3cc(Cl)ccc3[nH]c2c2ncccc12", "group": "class 0"}
{"query.smiles": "O=C(/C=C\\c1ccc(O)c(O)c1)c1ccccc1O", "group": "class 0"}
{"query.smiles": "COC(=O)N[C@H]1CCc2cc(OC)c(OC)c(OC)c2-c2ccc(SC)c(=O)cc21", "group": "class 1"}

# lookup: test call for O=C([CH-]C(=O)c1ccccc1)c1ccccc1.O=C([CH-]C(=O)c1ccccc1)c1ccccc1.O=C([CH-]C(=O)c1ccccc1)c1ccccc1.[Ga+3] class 0

# lookup: test call for COc1ccc(-c2nc3sc(-c4cc(OC)c(OC)c(OC)c4)nn3c2/C=C2/C(=O)Nc3ccc(F)cc32)cc1 class 0

# lookup: test call for O=C1C=C(Nc2ccccc2)c2ccccc2C1=O class 0

# lookup: test call for Cn1ncnc1[C@@H]1c2n[nH]c(=O)c3cc(F)cc(c23)N[C@H]1c1ccc(F)cc1 class 0

# lookup: test call for C=CCc1cccc(C=O)c1O class 0

# lookup: test call for Cn1cc(C2=C(c3ccsc3)C(=O)NC2=O)c2ccccc21 class 0

---

TGI by entry:
test system: T-47D breast; test: NCI tumour cell line growth inhibition, 48 h

{"molecule": "CS(=O)(=O)OCCN(CCOS(C)(=O)=O)c1ccc(C=Nc2ccc(-c3csc(COc4ccccc4)n3)cc2)cc1", "test.value": "> 51.8 µM"}
{"molecule": "COc1cc(/C=C2\\CC3C4CC=C5CC(OC(C)=O)CC[C@]5(C)C4CC[C@]3(C)C2=O)ccc1OCCN1CCCC1 (stereo not given in full)", "test.value": "> 91 µM"}
{"molecule": "O=c1c2ccccc2nc(-c2cccc([N+](=O)[O-])c2)n1O", "test.value": "> 100 µM"}
{"molecule": "COc1cc2nc3n(c2cc1OC)C(O)c1c(Cl)nc(SC)nc1S3 (stereo not given)", "test.value": "> 59 µM"}
{"molecule": "CN1CCN(c2cc3[nH]c4cc(O)cc(O)c4c(=O)c3cc2N)CC1", "test.value": "> 100 µM"}
{"molecule": "COC(=O)C(=O)C(C(=O)C(=O)Nc1ccc(Cl)c(Cl)c1)c1nc2ccc(C(=O)c3ccccc3)cc2[nH]c1=O (stereo not given)", "test.value": "> 100 µM"}

Give T-47D breast TGI for C#CCN(Cc1ccc2nc(-c3ccccc3)c(Cl)nc2c1)c1ccc(F)cc1 > 100 µM

Give T-47D breast TGI for O=C(O)C(Cc1cc(I)c(O)c(I)c1)C1CCCCC1 (stereo not given) > 100 µM

Give T-47D breast TGI for Cc1ccc(N)c(S)c1 33.9 µM

Give T-47D breast TGI for Clc1ccc(Cc2nc3ccccc3o2)cc1 > 100 µM

Just for reference, PubChem BioAssay (NCI) is where these values come from.
